experiment: Pharmacokinetics and absolute bioavailability in rats (LC-MS/MS); format: in vivo; conditions: male, SD, plasma; rat, intravenous administration 2.5 mg/kg, n = 5
measurement name: half-life (min)

>  <structure>
CC(C)CNC(=O)/C=C/c1cc2c(c(C(F)(F)F)c1)OCO2

>  <reported measurement>
39.6

$$$$
>  <structure>
NC(=O)/C=C/c1cc2c(c(C(F)(F)F)c1)OCO2

>  <reported measurement>
14.4

$$$$

----------
experiment: Pharmacokinetics and absolute bioavailability in rats (LC-MS/MS); assay type: in vivo; settings: male, Sprague-Dawley (SD), plasma, po; rat, intragastric administration 12.5 mg/kg, n = 5
measurement name: AUC(0-inf) (ng·h/mL)

>  <molecule>
CC(C)CNC(=O)/C=C/c1cc2c(c(C(F)(F)F)c1)OCO2 [Compound I-5]

>  <measurement name>
AUC(0-inf)

>  <reported measurement>
659

$$$$
>  <molecule>
NC(=O)/C=C/c1cc2c(c(C(F)(F)F)c1)OCO2 [Compound M2]

>  <measurement name>
AUC(0-inf)

>  <reported measurement>
1120

$$$$
